The reported measurements were obtained from PubChem BioAssay (NCI).

For each record, write down the corresponding growth.
- Tested on: COLO 205 colon
- test-summary: NCI-60 one-dose screen, 48 h (100 = growth as untreated, 0 = no growth, -100 = all killed)
- experimental-context: 10 µM unless noted
This is part of a sample that, as a whole, favours compounds with a hit. Of some 83,000 tested, about 20% had one in any assay.
Numbers only, in %.

Past entries and their recorded results:
Request: Suppose we examine the compound COc1ccc(Br)cc1NC(=O)Nc1cccc2c1ccn2Cc1ccnc(N)c1 ; what growth value has been reported?
Result: -57.5

Request: # repeat for COC(=O)[C@]12CC[C@@H](C)[C@H](C)[C@@H]1C1=CC[C@@H]3[C@@]4(C)C(C#N)=CC(C)=C4CC[C@@]3(C)[C@]1(C)CC2
Result: 86.1

Request: # repeat for Cc1cc(NCC(=O)Nc2ccc(-c3nc4ccccc4s3)cc2)no1
Result: 108

Request: # repeat for Cc1cc(C(=O)NOCCO)c(Nc2ccc(I)cc2F)n(C)c1=O
Result: 4.04

Request: # repeat for Cc1cn(-c2cc(NC(=O)c3ccc(C)c(Nc4nccc(-c5cnccn5)n4)c3)cc(C(F)(F)F)c2)cn1
Result: 25.3

Below is a list of compounds. For each, state its recorded growth.
1. Cc1cccc(Cl)c1NC(=O)c1cnc(Nc2cc(N3CCOCC3)cc(S(C)(=O)=O)c2)s1
2. Cc1cc([C@@H](C)Nc2ccccc2C(=O)O)c2nc(N3CCOCC3)cc(=O)n2c1
3. CN1CCN(CC(=O)Nc2ccc(-c3nc4ccccc4s3)cc2)CC1
4. CC1(O)CCC2CC3OC3(C)CCC3OC3(C)C(O)CC1C2(C)C (stereo unspecified)
5. CC(C)=CCc1cc2c(cc1O)C1=C(C(=O)C3=C(NCCS3(=O)=O)C1=O)C(C=C(C)C)O2 (stereo unspecified)
6. Cc1ccc(NC(=O)c2ccc(CN3CCN(C)CC3)cc2)cc1Nc1nc(-c2cccnc2)cs1

Result:
[-6.99, -5.47, 39.7, 109, 29.4, 16.1]

----------
- Tested on: SK-OV-3 ovarian
- test-summary: NCI-60 one-dose screen, 48 h
- experimental-context: 10 µM unless noted
- Experimental: Growth inhibition of the SK-OV-3 human tumor cell line is measured as a screen for anti-cancer activity. Cells are grown in 96 well plates and exposed to the test compound for 48 hours. Compounds are tested at a single concentration, which is 10^-5 M for most compounds. The reported endpoint is percent growth (GI% or GIPRCNT), where numbers from 0 - 100% represent growth inhibition, and numbers from -100% - 0 represent cell death. For example, a value of 40 represents 60% growth inhibition. […]
About 83,000 compounds went through this panel and 20% of them were active in at least one assay; those are over-represented in the sample as a whole. The source made the active and inactive calls. Rule for the calls: active = growth percent below 10; inactive = the rest.
Returns: one label drawn from 1 = active, 0 = inactive

Request: Check the results log: what was the call for COc1ccc(-c2ccc3ncc4c(c3c2)n(-c2ccc(N3CCNCC3)c(C(F)(F)F)c2)c(=O)n4C)cn1 ?
Result: 1

Request: # repeat for CCOC(=O)C1=C(C)N=C2Sc3cccc(OC)c3N2[C@H]1c1ccccn1
Result: 0

Request: # repeat for Cn1ncc(Cl)c1-c1cc(C(=O)N[C@H](CN)Cc2ccc(F)c(F)c2)oc1Cl
Result: 1

Request: # repeat for O=C(O)C1(Cc2cccc(Nc3nccs3)n2)CCC(Oc2cccc(Cl)c2F)CC1 (stereo not drawn)
Result: 0

----------
- System: A549/ATCC NSCLC
- test-summary: NCI-60 one-dose screen, 48 h
- experimental-context: 10 µM unless noted
About 83,000 compounds went through this panel and 20% of them were active in at least one assay; those are over-represented in the sample as a whole. Calls of active or inactive are those of the source. How the source made its calls: active means growth percent below 10; inactive means the rest.
Returns: one label drawn from active, inactive

Solved entries:
Request: Check the results log: what was the call for Cc1ccc(-[n+]2c3cc(N)c(C)cc3nc3cc(C)c(Nc4ccccc4)cc32)cc1 ?
Result: active

Request: # repeat for O=C1C=CC2(NN=C(c3ccccc3)N2c2cccc(Cl)c2)C(Cl)=C1 (centres undefined)
Result: inactive

Request: # repeat for Cc1nc(NC(=O)N2CCC[C@H]2C(N)=O)sc1-c1ccnc(C(C)(C)C(F)(F)F)c1
Result: inactive

Request: # repeat for Nc1c(Cl)cccc1[N+](=O)[O-]
Result: inactive

Request: # repeat for CC[C@H](Nc1ncnc2nc[nH]c12)c1nc2cccc(F)c2c(=O)n1-c1ccccc1
Result: inactive

Request: # repeat for NC1(C(=O)N[C@@H](CCO)c2ccc(Cl)cc2)CCN(c2ncnc3[nH]ccc23)CC1
Result: inactive

Request: # repeat for CC(=O)Nc1cccc(-n2c(=O)n(C3CC3)c(=O)c3c(Nc4ccc(I)cc4F)n(C)c(=O)c(C)c32)c1
Result: inactive

Request: # repeat for COC(=O)[C@]12CC[C@@H](C)[C@H](C)[C@@H]1C1=CC[C@@H]3[C@@]4(C)C(c5cnco5)=C[C@@](C)(CO)C4=CC[C@@]3(C)[C@]1(C)CC2
Result: inactive

Request: # repeat for O=C(Nc1ccc(Nc2ncnc3sc4c(c23)CCOC4)cc1)Nc1ccc(Cl)c(C(F)(F)F)c1
Result: inactive

Request: # repeat for Cc1cc(NCC(=O)Nc2ccc(-c3nc4ccccc4s3)cc2)no1
Result: inactive

Continuing:
Request: Check the results log: what was the call for Cc1cc2c(-c3nc4ccccn4c3NC34CC5CC(CC(C5)C3)C4)c(O)c(O)cc2c(O)c1-c1c(C)cc2c(-c3nc4ccccn4c3NC34CC5CC(CC(C5)C3)C4)c(O)c(O)cc2c1O ?
Result: active

Request: # repeat for Oc1ccc(C(c2ccc(O)cc2)C(Cl)(Cl)Cl)cc1
Result: inactive

Request: # repeat for CCOC(=O)Sc1ncnc2nc[nH]c12
Result: inactive

Request: # repeat for [2H]C1([2H])[C@H](C)O[C@H](C)C([2H])([2H])N1c1ccc(NC(=O)c2cccc(-c3ccc(OC(F)(F)F)cc3)c2C)cn1
Result: inactive

Request: # repeat for COc1cccc(NC(=O)Nc2ccc(Nc3ncnc4sc5c(c34)CCN(C(=O)CCl)C5)cc2)c1
Result: inactive

Request: # repeat for COc1ccc(C(=O)c2cc(OC)c(OC)c(OC)c2)cc1/C=C/C(=O)c1ccc(F)cc1
Result: inactive

Request: # repeat for COC(=O)N[C@@H](C)CNc1nccc(-c2cn(C(C)C)nc2-c2cc(Cl)cc(NS(C)(=O)=O)c2F)n1
Result: inactive

Request: # repeat for C[C@@H](Nc1cc(F)cc(F)c1)c1cc(C(=O)N(C)C)cc2c(=O)cc(N3CCOCC3)oc12
Result: inactive

Request: # repeat for Cn1cc(-c2cnn3c(N)c(Br)c([C@@H]4CCCNC4)nc23)cn1
Result: inactive

----------
- Test system: NCI/ADR-RES ovarian
- test-summary: NCI-60 one-dose screen, 48 h (100 = growth as untreated, 0 = no growth, -100 = all killed)
- experimental-context: 10 µM unless noted
The panel holds about 83,000 compounds, 20% with a hit somewhere; the sample as a whole holds those more often.
quantity-name: growth (%)
Numbers only, in %.

Request: Notebook entry, NCI/ADR-RES ovarian assay: growth of CCOC(=O)Sc1ncnc2nc[nH]c12 = ?
Result: 37

Below is a list of compounds. For each, state its recorded growth.
1. O=c1[nH]c([C@@H]2CCCN2)nc2c1oc1ccc(Cl)cc12
2. CCc1nc(C(N)=O)c(Nc2ccc(N3CCC(N4CCN(C)CC4)CC3)c(OC)c2)nc1NC1CCOCC1

Result:
1: 82.9; 2: 32

----------
- System: HCT-116 colon
- test-summary: NCI-60 one-dose screen, 48 h
- experimental-context: 10 µM unless noted
- Protocol: Growth inhibition of the HCT-116 human tumor cell line is measured as a screen for anti-cancer activity. Cells are grown in 96 well plates and exposed to the test compound for 48 hours. Compounds are tested at a single concentration, which is 10^-5 M for most compounds. The reported endpoint is percent growth (GI% or GIPRCNT), where numbers from 0 - 100% represent growth inhibition, and numbers from -100% - 0 represent cell death. For example, a value of 40 represents 60% growth inhibition. […]
The panel holds about 83,000 compounds, 20% with a hit somewhere; the sample as a whole holds those more often. Calls of active or inactive are those of the source. The calls were made as follows: active = growth percent below 10; inactive = the rest.
Returns: one label drawn from active, inactive

Solved entries:
Request: Check the results log: what was the call for O=C1CCC(=O)CC1 ?
Result: inactive

Request: # repeat for COc1ccc(-c2cnc(-c3ccc(Cl)cc3)[nH]2)cc1OC
Result: inactive

Request: # repeat for CS(=O)(=O)N1CCN(Cc2cc3nc(-c4cccc5[nH]ncc45)nc(N4CCOCC4)c3s2)CC1
Result: inactive

Request: # repeat for O=C(/C=C/c1ccc2c(c1)OCO2)c1c(O)c2ccccc2oc1=O
Result: inactive

Request: # repeat for NS(=O)(=O)c1ccc(CCN2C(=O)/C(=C\c3ccc(Cl)cc3)C=C2c2ccc3ccccc3c2)cc1
Result: inactive

Request: # repeat for CCc1nc(C(N)=O)c(Nc2ccc(N3CCC(N4CCN(C)CC4)CC3)c(OC)c2)nc1NC1CCOCC1
Result: active

Request: # repeat for CC#CC(=O)N1CCC[C@H]1c1nc(-c2ccc(C(=O)Nc3ccccn3)cc2)c2c(N)nccn12
Result: inactive

Request: # repeat for COC(=O)C1=C(C(=O)OC)C23C=C(C)C1C2=C(C)C1(CC1)[C@@](C)(O)C3=O (some centres undefined)
Result: active

Continuing:
Request: Check the results log: what was the call for NC(=O)N1N=C(c2ccc(Cl)cc2)CC1c1cn(-c2ccccc2)nc1-c1ccc(Cl)cc1 (centres undefined) ?
Result: inactive

Request: # repeat for FC(F)c1nc2ccccc2n1-c1nc(N2CCOCC2)nc(N2CCOCC2)n1
Result: inactive

Request: # repeat for CN1CCN(c2nc(C3=C(c4c[nH]c5ccccc45)C(=O)NC3=O)c3ccccc3n2)CC1
Result: inactive

Request: # repeat for CN(C)CCn1c(=O)c2c3cc4c(cc3n(CCN(C)C)c2c2ccc(Cl)cc21)OCO4
Result: active

Request: # repeat for CCc1cc2c(cc1N1CCC(N3CCOCC3)CC1)C(C)(C)c1[nH]c3cc(C#N)ccc3c1C2=O
Result: active

Request: # repeat for C[C@@H](N)c1ccc(C(=O)Nc2ccnc3[nH]ccc23)cc1
Result: inactive
